System: Staphylococcus aureus H4
Experiment: MIC / antibiotic susceptibility; also: key: R: strain resistant to antibiotic concerned; S: strain sensitive to antibiotic concerned; L strain with intermediate resistance to antibiotic concerned
Type: cell-based
PROPERTY_LABEL: Susceptibility of strain to antibiotic

COMPOUND | PROPERTY_LABEL | OBSERVED_VALUE
CC(=O)O[C@H]1C[C@@]2(C)[C@@H](C[C@@H](O)[C@H]3[C@@]4(C)CC[C@@H](O)[C@@H](C)[C@@H]4CC[C@@]32C)/C1=C(\CCC=C(C)C)C(=O)O [Fusidic acid] | Susceptibility of strain to antibiotic | S
Cc1onc(-c2ccccc2)c1C(=O)N[C@@H]1C(=O)N2[C@@H]1SC(C)(C)[C@@H]2C(=O)O [Oxacillin] | Susceptibility of strain to antibiotic | R
CC1(C)S[C@@H]2[C@H](NC(=O)Cc3ccccc3)C(=O)N2[C@H]1C(=O)O [Penicillin G] | Susceptibility of strain to antibiotic | R
